# Test system: MDA-MB-436 cells
# assay_remarks: MDA-MB-436 cell proliferation inhibition experiment
# Type: cell-based
# setup_conditions: Homo sapiens, 168 h, 7 d, Celltiter Glo
For each of the compounds below, state its IC50.
One number for each entry, in µM.

>>> df
                                   compound       test_system  measurement
0  CCc1cc2ncc(CN3CCN(c4ccc(C(F)F)cn4)CC3)cc2[nH]c1=O [Compound 24]  MDA-MB-436 cells       0.0083
1  CCc1cc2ncc(CN3CCN(c4ccc(C#N)cc4F)CC3)cc2[nH]c1=O [Compound 1]  MDA-MB-436 cells       0.0122
2  CCc1cc2ncc(CN3CCN(c4ccc(-c5cnn(C)c5)cn4)CC3)cc2[nH]c1=O [Compound 21]  MDA-MB-436 cells       0.0278
3  CCc1cc2ncc(CN3CCN(c4ccc(Cl)cn4)CC3)cc2[nH]c1=O [Compound 10]  MDA-MB-436 cells       0.0121

Next:
Short answer on MDA-MB-436 cells for CCc1cc2ncc(CN3CCN(c4ccc(F)cn4)CC3)cc2[nH]c1=O [Compound 3] , IC50: 0.0111
